These measurements were taken from patent US9708383.

Listed binders paired with reported ratio IC50 high HSA/IC50 low HSA
Target: T1, human GLP-1 receptor (human, UniProt P43220 24-463)
T1 construct: whole, on cells; Used as purified membranes of the transfected hamster cells, not whole cells; also called hGLP-1
Assay: SPA, 2.0% vs 0.005% HSA
*1 amine or outer side, *2 acyl side, *3 side chain or, on linkers, in order; H or OH if unused. Where no end group is shown, it is not given here. Side-chain parts run from the residue outwards. [ ]: non-standard residue; d: D form. The star is where a group is joined. γGlu = O=C(O)[C@H](CCC(=O)[*:2])N[*:1]; Hexanoyl(6-Ph) = O=C(CCCCCc1ccccc1)*; 13‑carboxytridecanoyl = C14 diacid; AEEA = NCCOCCOCC(=O)O; Aib = CC(C)(N)C(=O)O; Ahx = NCCCCCC(=O)O

binder	ratio IC50 high HSA/IC50 low HSA
H[Aib]EGTFTSDVSK([γGlu-AEEA-AEEA-13‑carboxytridecanoyl])YLEEQAAK([γGlu-AEEA-AEEA-13‑carboxytridecanoyl])EFIAWLVQGRG [GLP-1 derivative of Example 65: [Aib8,Lys18,Glu22,Gln34]-GLP-1-(7-37)-peptide]	> 1

Next binder, ratio IC50 high HSA/IC50 low HSA to be filled in.
For the binder HAEGTFTSDVSK([AEEA-AEEA-γGlu-Ahx-γGlu-Hexanoyl(6-Ph)])YLEGQAAK([AEEA-AEEA-γGlu-Ahx-γGlu-Hexanoyl(6-Ph)])EFIAWLVRGRG [GLP-1 derivative of Example 129: [Lys18,Arg34]-GLP-1-(7-37)-peptide] , give its reported ratio IC50 high HSA/IC50 low HSA.
> 1
